# SYSTEM TESTED: hGPR132a (Homo sapiens, UniProt Q9UNW8)
# Sequence (Q9UNW8 whole entry): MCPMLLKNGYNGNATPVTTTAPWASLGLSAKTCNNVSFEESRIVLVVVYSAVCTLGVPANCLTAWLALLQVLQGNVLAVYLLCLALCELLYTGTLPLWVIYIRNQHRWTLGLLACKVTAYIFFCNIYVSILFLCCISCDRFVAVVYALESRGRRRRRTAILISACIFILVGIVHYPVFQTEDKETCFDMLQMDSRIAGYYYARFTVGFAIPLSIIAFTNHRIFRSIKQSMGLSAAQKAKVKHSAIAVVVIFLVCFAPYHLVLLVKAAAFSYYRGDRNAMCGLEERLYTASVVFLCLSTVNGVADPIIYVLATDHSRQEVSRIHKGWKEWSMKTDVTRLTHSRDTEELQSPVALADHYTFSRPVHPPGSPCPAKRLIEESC
# Assay type: cell-based
# CONDITION PARAMETERS: normalized to the effect of NPGly
READOUT KIND: Emax, Human GPR132a, Yeast (%)
Give the quantity in %, number only.

> print(dat)
                                   molecule  meas.value
1  CCCCC/C=C\C/C=C\CCCCCCCC(N)=O [Linoleamide, linoleamide]          79

Okay, next one:
Notebook entry, hGPR132a (Homo sapiens, UniProt Q9UNW8) assay: Emax, Human GPR132a, Yeast of CCCCCCCCCCCCCCCCCC(=O)NCC(=O)O = ?
80
